# Target desc: wild type human RORγt LBD (Homo sapiens, UniProt P51449)
# Construct: expressed in transfected cells; host or cells: HEK293T
# Sequence (P51449 258-518): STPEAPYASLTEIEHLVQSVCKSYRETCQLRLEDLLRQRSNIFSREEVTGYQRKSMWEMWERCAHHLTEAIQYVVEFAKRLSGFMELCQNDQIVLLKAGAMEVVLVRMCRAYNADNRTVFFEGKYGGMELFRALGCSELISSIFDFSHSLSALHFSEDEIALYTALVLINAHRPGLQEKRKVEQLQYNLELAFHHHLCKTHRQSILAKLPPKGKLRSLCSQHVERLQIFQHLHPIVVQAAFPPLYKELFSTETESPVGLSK
# Procedure text: RORγt (LBD) Reporter Assay (GAL4-luciferase, HEK293T cells)
# Assay type: cell-based
# Experimental setup: 6 µM compound concentration; HEK293T cells; 6 µM
Observation type: RORγt (LBD) Reporter Assay, % inhibition @ 6 µM (%)
Give the value, in units of %, as a plain number.

Reference set, count: 8
{"Compound": "COC1CN(c2nc3ccc(C(O)(c4ccc(C(F)(F)F)nc4)c4cncn4C)cc3c(Cl)c2Cc2ccc(-n3cccn3)cc2)C1 (single isomer, unassigned) [Example 133c]", "Target desc": "wild type human RORγt LBD (Homo sapiens, UniProt P51449)", "Assay result": 82}
{"Compound": "Cn1cncc1C(O)(c1ccc(C(F)(F)F)nc1)c1ccc2nc(N3CC(F)(F)C3)c(Cc3ccc(-n4cccn4)cc3)c(Cl)c2c1 (single isomer, unassigned) [Example 135c]", "Target desc": "wild type human RORγt LBD (Homo sapiens, UniProt P51449)", "Assay result": 95}
{"Compound": "Cc1ccc(C(O)(c2ccc3nc(N4CCC4)c(Cc4ccc(C(F)(F)F)cc4)c(Cl)c3c2)c2cnnn2C)c(C)n1 (single isomer, unassigned) [Example 140c]", "Target desc": "wild type human RORγt LBD (Homo sapiens, UniProt P51449)", "Assay result": 99}
{"Compound": "COc1nc2ccc(C(O)(c3ccc(F)cc3)C3CCN(C(C)=O)CC3)cc2c(Cl)c1Cc1ccc(-n2cccn2)cc1 (single isomer, unassigned) [Example 157c]", "Target desc": "wild type human RORγt LBD (Homo sapiens, UniProt P51449)", "Assay result": 99}
{"Compound": "COc1nc2ccc(C(N)(c3ccc(C(F)(F)F)nc3)c3cncn3C)cc2c(Cl)c1Cc1ccccc1 (single isomer, unassigned) [Example 120b]", "Target desc": "wild type human RORγt LBD (Homo sapiens, UniProt P51449)", "Assay result": 27}
{"Compound": "Cn1cncc1C(O)(c1ccc(C(F)(F)F)nc1)c1ccc2nc(N3CC(F)C3)c(Cc3ccc(-n4cccn4)cc3)c(Cl)c2c1 (single isomer, unassigned) [Example 147c]", "Target desc": "wild type human RORγt LBD (Homo sapiens, UniProt P51449)", "Assay result": 96}
{"Compound": "Cc1cc(C(O)(c2ccc(C(F)(F)F)nc2)c2cncn2C)cc2c(Cl)c(Cc3ccc(-n4cccn4)cc3)c(N3CCC3)nc12 (single isomer, unassigned) [Example 137c]", "Target desc": "wild type human RORγt LBD (Homo sapiens, UniProt P51449)", "Assay result": 94}
{"Compound": "CC(=O)N1CCC(C(O)(c2ccc3nc(C(F)(F)F)c(Cc4ccccc4)c(Cl)c3c2)c2cncn2C)CC1 (single isomer, unassigned) [Example 115c]", "Target desc": "wild type human RORγt LBD (Homo sapiens, UniProt P51449)", "Assay result": 70}

Tell me measured RORγt (LBD) Reporter Assay, % inhibition @ 6 µM for COc1nc2ccc(C(O)(c3ccc(F)cc3)c3cncn3C)cc2c(Cl)c1Cc1ccc(-n2cccn2)cc1 (single isomer, unassigned) [Example 160c] please.
98

Quickly give me recorded RORγt (LBD) Reporter Assay, % inhibition @ 6 µM for COc1ccc(C(O)(c2cccnc2)c2ccc3nc(OC)c(Cc4ccc(-n5cccn5)cc4)c(Cl)c3c2)cc1OC (single isomer, unassigned) [Example 159c]
105

Supply RORγt (LBD) Reporter Assay, % inhibition @ 6 µM value. Item: COc1nc2ccc(C(O)(c3ncccn3)c3cncn3C)cc2c(Cl)c1Cc1ccc(-n2cccn2)cc1 (single isomer, unassigned) [Example 131b]
59
